Test system: peritoneal mast cells of rat
assay-overview: Histamine release from peritoneal mast cells induced by Compound 48/80 (non-allergic release)
Assay type: cell-based, Sprague-Dawley strain male rat
details: Rattus norvegicus, Mast cell, 10 min, Experiment 2; 10⁻⁵ M; Compound 48/80 0.5 µg/ml; read-out: Inhibitory ratio (%) histamine release
property-measured: inhibition at 10 µM (%)

compound="COC(=O)CSc1ccc2cc(OC)c(OC)cc2c1 [Exemplary compound VI-(1)]" unit_string=% quantitative_readout=3.7
compound="COC(=O)CSc1ccc2cc(OC(=O)OC(C)C)c(OC(=O)OC(C)C)cc2c1 [Exemplary compound VI-(4)]" unit_string=% quantitative_readout=17.8
compound="COC(=O)CSc1ccc2cc(OC(=O)OC)c(OC(=O)OC)cc2c1 [Exemplary compound VI-(3)]" unit_string=% quantitative_readout=7.5
compound="COC(=O)CSc1ccc2cc(O)c(O)cc2c1 [Exemplary compound IV-(1)]" unit_string=% quantitative_readout=2
